assaySummary: Permeability across human Caco-2 cell membrane
Format: ADME, cell-based
measurementParameters: read-out: permeability
measureName: Papp (×10⁻⁶ cm/s)
Numeric answer only, unit ×10⁻⁶ cm/s assumed.

Q: # get_value(readout='Papp', item= O=C(Nc1nc(-c2cccc(C(F)(F)F)c2F)cs1)c1ccc(N2CCC(C(=O)O)C2)nc1 (stereo unspecified) )
A: 4.5

====

assaySummary: Aqueous solubility of the compound
Format: physicochemical
measurementParameters: aqueous medium; read-out: solubility
measureName: solubility

Please review the entries below; each comes with its answer.
1. O=C(Nc1nc(-c2cccc(C(F)(F)F)c2F)cs1)c1cnc(N2CCC(C(=O)O)CC2)c(Br)c1 : < 10 µg/mL
2. N#Cc1cc(C(=O)Nc2nc(-c3cccc(C(F)(F)F)c3F)cs2)cnc1N1CCC(C(=O)O)CC1 : < 10 µg/mL
3. O=C(Nc1nc(-c2cccc(C(F)(F)F)c2F)cs1)c1cnc(N2CCC(C(=O)O)CC2)c(F)c1 : < 10 µg/mL
4. O=C(Nc1nc(-c2cccc(C(F)(F)F)c2F)cs1)c1cnc(N2CCCCC2)c(Cl)c1 : < 10 µg/mL
5. O=C(Nc1nc(-c2cccc(C(F)(F)F)c2F)cs1)c1ccc(N2CCC(C(=O)O)CC2)nc1 : < 10 µg/mL

Q: # get_value(readout='solubility', item= O=C(Nc1nc(-c2cccc(C(F)(F)F)c2F)cs1)c1cnc(N2CCC(C(=O)O)CC2)c(Cl)c1 )
A: < 10 µg/mL

Q: # get_value(readout='solubility', item= NCCO.O=C(Nc1nc(-c2cccc(C(F)(F)F)c2F)cs1)c1ccc(N2CCC(C(=O)O)C2)nc1 (stereo not drawn) )
A: > 2000 µg/mL

Q: # get_value(readout='solubility', item= O=C(Nc1nc(-c2cccc(OC(F)(F)F)c2F)cs1)c1ccc(Nc2cc(N3CC(O)C3)ncn2)cc1 )
A: < 1 µg/mL

====

assaySummary: Lipophilicity, log D of the compound
Assay type: physicochemical
measurementParameters: octanol/water
measureName: logD
The response must contain the number and no unit.

Please review the entries below; each comes with its answer.
1. O=C(Nc1nc(-c2cccc(OC(F)(F)F)c2F)cs1)c1ccc(Nc2cc(N3CC(O)C3)ncn2)cc1 : 4.61
2. C[C@@H](Nc1ncc(C(=O)Nc2nc(-c3cccc(C(F)(F)F)c3F)cs2)cc1Cl)C(=O)O : 1.57
3. C[C@H]1CN(c2ncc(C(=O)Nc3nc(-c4cccc(C(F)(F)F)c4F)cs3)cc2Cl)CC1C(=O)O (some centres undefined) : 2.79

Q: # get_value(readout='logD', item= O=C(Nc1nc(-c2cccc(C(F)(F)F)c2F)cs1)c1cnc(N2CCC(c3nn[nH]n3)CC2)c(Cl)c1 )
A: 3.24

====

assaySummary: Aqueous solubility of the compound
Assay type: physicochemical
measurementParameters: aqueous medium; read-out: solubility
Overview of reported solubility across a group of compounds:

Please review the entries below; each comes with its answer.
1) O=C(Nc1nc(-c2cccc(C(F)(F)F)c2F)cs1)c1cnc(N2CCCC(C(=O)O)C2)c(Cl)c1 (stereo not drawn) : < 10 µg/mL
2) O=C(Nc1nc(-c2cccc(C(F)(F)F)c2F)cs1)c1cc(Cl)c(N2CCC(C(=O)O)CC2)c(Cl)c1 : < 10 µg/mL
3) NS(=O)(=O)C1CCN(c2ncc(C(=O)Nc3nc(-c4cccc(C(F)(F)F)c4F)cs3)cc2Cl)CC1 : < 10 µg/mL
4) Cc1cc(C(=O)Nc2nc(-c3cccc(C(F)(F)F)c3F)cs2)cnc1N1CCC(C(=O)O)CC1 : < 10 µg/mL
5) NCCO.O=C(Nc1nc(-c2cccc(C(F)(F)F)c2F)cs1)c1cnc(N2CCC(C(=O)O)CC2)c(Cl)c1 : 15600 µg/mL
6) O=C(Nc1nc(-c2cccc(C(F)(F)F)c2F)cs1)c1ccc(N2CCC(C(=O)O)C2)nc1 (stereo not drawn) : 167 µg/mL
7) COc1cc(C(=O)Nc2nc(-c3cccc(C(F)(F)F)c3F)cs2)cnc1N1CCC(C(=O)O)CC1 : < 10 µg/mL

Read the next record carefully.
Q: # get_value(readout='solubility', item= O=C(Nc1nc(-c2cccc(C(F)(F)F)c2F)cs1)c1cnc(N2CCNC(C(=O)O)C2)c(Cl)c1 (stereo not drawn) )
A: < 10 µg/mL

====

assaySummary: Oral bioavailability in rat
Format: ADME, organism-based
measurementParameters: in vivo
measureName: bioavailability

Q: # get_value(readout='bioavailability', item= O=C(Nc1nc(-c2cccc(C(F)(F)F)c2F)cs1)c1ccc(N2CCC(C(=O)O)C2)nc1 (stereo unspecified) )
A: < 3%

====

assaySummary: Protein binding in rat plasma
Format: ADME, cell-free
measurementParameters: read-out: PPB
measureName: fraction unbound

Q: # get_value(readout='fraction unbound', item= O=C(Nc1nc(-c2cccc(C(F)(F)F)c2F)cs1)c1cnc(N2CCC(C(=O)O)CC2)c(Cl)c1 )
A: < 0.005

====

assaySummary: Bioavailability in dog at 5 mg/kg, po
Format: ADME, organism-based, Canis lupus familiaris
measurementParameters: in vivo
measureName: bioavailability (%)
Numeric answer only, unit % assumed.

Q: # get_value(readout='bioavailability', item= CC1=NN(c2ccc(C)c(C)c2)C(=O)/C1=N\Nc1cccc(-c2cccc(C(=O)O)c2)c1O.NCCO )
A: 50

====

assaySystem: Thrombopoietin receptor (Homo sapiens, UniProt P40238)
Sequence (P40238 whole entry): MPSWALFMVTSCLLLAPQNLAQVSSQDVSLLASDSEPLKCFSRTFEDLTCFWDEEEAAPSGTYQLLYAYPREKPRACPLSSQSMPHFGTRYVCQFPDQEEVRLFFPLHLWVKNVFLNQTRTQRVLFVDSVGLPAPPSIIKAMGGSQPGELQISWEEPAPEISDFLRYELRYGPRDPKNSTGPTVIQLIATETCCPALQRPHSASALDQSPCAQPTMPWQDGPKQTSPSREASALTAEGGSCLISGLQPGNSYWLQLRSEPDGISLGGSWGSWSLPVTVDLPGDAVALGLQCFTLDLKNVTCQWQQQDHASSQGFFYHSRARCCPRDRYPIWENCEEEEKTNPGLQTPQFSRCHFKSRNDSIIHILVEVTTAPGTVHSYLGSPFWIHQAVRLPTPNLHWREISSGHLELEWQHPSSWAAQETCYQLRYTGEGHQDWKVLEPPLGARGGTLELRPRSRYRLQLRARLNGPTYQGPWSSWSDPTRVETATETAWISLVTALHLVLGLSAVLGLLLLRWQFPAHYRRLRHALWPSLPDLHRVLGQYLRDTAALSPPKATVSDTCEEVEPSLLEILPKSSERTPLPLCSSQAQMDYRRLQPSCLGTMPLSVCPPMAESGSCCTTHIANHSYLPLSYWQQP
assaySummary: Agonist activity at human thrombopoietin receptor transfected in mouse BAF3 cells assessed as stimulation of beta lactamase activity incubated in dark up to 1 hr
Values of EC50 strictly less than 100 nM map to true (1), and values of at least 100 nM map to false (0).

Take a look at these entries with their results.
1. O=C(Nc1nc(-c2cccc(C(F)(F)F)c2F)cs1)c1cnc(N2CCC(C(=O)O)CC2)c(F)c1 : false (0)
2. O=C(Nc1nc(-c2cccc(C(F)(F)F)c2F)cs1)c1cnc(N2CCCCC2)c(Cl)c1 : false (0)
3. COc1cc(C(=O)Nc2nc(-c3cccc(C(F)(F)F)c3F)cs2)cnc1N1CCC(C(=O)O)CC1 : false (0)
4. O=C(Nc1nc(-c2cccc(C(F)(F)F)c2F)cs1)c1cc(Cl)c(N2CCC(C(=O)O)CC2)c(Cl)c1 : true (1)
5. N#Cc1cc(C(=O)Nc2nc(-c3cccc(C(F)(F)F)c3F)cs2)cnc1N1CCC(C(=O)O)CC1 : false (0)
6. O=C(Nc1nc(-c2cccc(C(F)(F)F)c2F)cs1)c1cnc(N2CCC(c3nn[nH]n3)CC2)c(Cl)c1 : false (0)
7. NC(=O)C1CCN(c2ncc(C(=O)Nc3nc(-c4cccc(C(F)(F)F)c4F)cs3)cc2Cl)CC1 : true (1)

Now for another entry.
Q: Threshold test, EC50 < 100 nM: C[C@H]1CN(c2ncc(C(=O)Nc3nc(-c4cccc(C(F)(F)F)c4F)cs3)cc2Cl)CC1C(=O)O (stereo partly drawn)
A: true (1)
